Cited source: the supplement of paper PMC12855868

B1: library; numbered along this chain (parent)
chain: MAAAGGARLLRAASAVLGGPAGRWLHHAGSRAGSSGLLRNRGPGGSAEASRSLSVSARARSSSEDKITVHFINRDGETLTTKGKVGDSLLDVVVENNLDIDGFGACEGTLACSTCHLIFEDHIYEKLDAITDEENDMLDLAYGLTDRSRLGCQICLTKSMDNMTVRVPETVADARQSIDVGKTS

- Variants of: B1
- test protocol: scaled log2 fold change in cell abundance, elesclomol vs control (0 = silent mean, 1 = nonsense mean) (scaled log2 ratio); higher = higher viability under elesclomol (loss of FDX1 cuproptosis function);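 also: variant abundance is its share of total variant reads in each endpoint sample, from next-generation sequencing of the integrated ORF PCR-amplified out of genomic DNA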
- particulars: with ABC1 FDX1 KO; elesclomol 5 nM; glucose 10 mM; 14 days
Note to self: values exactly at -0.03 are 1. So scaled log2 fold change at or above -0.03 is 1, below is 0.

Below, 8 variants whose answers are already recorded.
G44A	1
Y124F	0
L9M	1
V165C	1
G151C	1
I178V	0
L9F	0
G45E	1

hey, is scaled log2 fold change for this one >= -0.03? N162A
1

Does the reported scaled log2 fold change for L150H fall at or above the -0.03 mark?
1
